Origin of the recorded values: ChEMBL document CHEMBL1833961

// endpoint pKi / system Cannabinoid receptor 1 (Homo sapiens)
pKi: −log10 of the molar value.

q: Sample `CCOC(=O)/C(=C/c1cn(CCN2CCCCC2)c2ccccc12)C(=O)c1ccccc1` — what was its pKi?
a: < 5.00

q: Another compound: `CCOC(=O)/C(=C/c1cn(CCN2CCOCC2)c2ccccc12)C(=O)c1ccccc1`
a: < 5.00

q: Another compound: `N#C/C(=C\c1cn(CCN2CCOCC2)c2ccccc12)S(=O)(=O)c1ccccc1`
a: 7.21

---

Molecular target: Cannabinoid receptor 1 (Homo sapiens)
Sequence (P21554 whole entry): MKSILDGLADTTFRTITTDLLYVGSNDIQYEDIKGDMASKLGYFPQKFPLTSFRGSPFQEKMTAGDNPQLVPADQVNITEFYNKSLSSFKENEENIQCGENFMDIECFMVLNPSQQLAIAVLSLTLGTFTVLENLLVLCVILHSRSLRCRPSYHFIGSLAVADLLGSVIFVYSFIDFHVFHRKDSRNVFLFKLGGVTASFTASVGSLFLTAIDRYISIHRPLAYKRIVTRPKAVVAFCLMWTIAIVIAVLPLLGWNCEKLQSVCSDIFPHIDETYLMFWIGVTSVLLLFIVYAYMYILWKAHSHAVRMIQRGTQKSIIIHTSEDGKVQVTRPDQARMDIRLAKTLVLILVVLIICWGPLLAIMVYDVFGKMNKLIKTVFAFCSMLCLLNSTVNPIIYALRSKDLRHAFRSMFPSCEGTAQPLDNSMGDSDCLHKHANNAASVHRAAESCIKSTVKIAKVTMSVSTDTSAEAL
Assay: Displacement of [3H]-CP-55,940 from human CB1 receptor expressed in human HEK293 cells after 90 mins by radioligand assay
pIC50: −log10 of the molar value.
endpoint label: pIC50

q: Sample `CCOC(=O)/C(=C/c1cn(CCN2CCCCC2)c2ccccc12)C(=O)c1ccccc1` — what was its pIC50?
a: < 5.00

q: Another molecule: `CCOC(=O)/C(=C/c1cn(CCN2CCOCC2)c2ccccc12)C(=O)c1ccccc1`
a: < 5.00

q: Another molecule: `N#C/C(=C\c1cn(CCN2CCOCC2)c2ccccc12)S(=O)(=O)c1ccccc1`
a: 6.81

---

Biological target: Cannabinoid receptor 2 (Homo sapiens)
Sequence (P34972 whole entry): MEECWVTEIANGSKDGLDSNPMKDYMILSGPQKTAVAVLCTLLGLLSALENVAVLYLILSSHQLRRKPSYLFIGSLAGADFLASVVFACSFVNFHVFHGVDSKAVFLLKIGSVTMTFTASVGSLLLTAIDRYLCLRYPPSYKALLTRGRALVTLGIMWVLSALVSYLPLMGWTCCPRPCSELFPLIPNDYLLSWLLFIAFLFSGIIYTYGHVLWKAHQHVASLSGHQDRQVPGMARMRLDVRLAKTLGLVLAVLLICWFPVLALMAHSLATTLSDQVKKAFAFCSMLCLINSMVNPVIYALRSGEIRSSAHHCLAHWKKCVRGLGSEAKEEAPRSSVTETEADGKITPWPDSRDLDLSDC
Assay: Displacement of [3H]-WIN 55,212-2 from human CB2 receptor expressed in human HEK293 cells after 90 mins by radioligand assay
Format: cell-based
Settings: read-out: Ki
Provide the reported pKi of each item.
Just the number, please; pKi means minus log10 of the concentration in mol/L.

q: Param readout = pKi; param system = Cannabinoid receptor 2 (Homo sapiens); param query = `CCOC(=O)/C(=C/c1cn(CCN2CCCCC2)c2ccccc12)C(=O)c1ccccc1` ; response: value
a: 5.86

q: Another molecule: `N#C/C(=C\c1cn(CCN2CCCCC2)c2ccccc12)S(=O)(=O)c1ccccc1`
a: 8.12

q: Another molecule: `CCOC(=O)/C(=C/c1cn(CCN2CCOCC2)c2ccccc12)C(=O)c1ccccc1`
a: 5.80

q: Another molecule: `N#C/C(=C\c1cn(CCN2CCOCC2)c2ccccc12)S(=O)(=O)c1ccccc1`
a: 7.99
